# EXPERIMENT: Compound was evaluated for 50% lethal dose in mice; LD50 range is 100-300
# Format: ADME, organism-based
# STATED CONDITIONS: mouse, in vivo
MEASURED PARAMETER: LD50 (mg/kg)
Reply with just the number (in mg/kg).

Q. GET /values?readout=LD50&item= c1ccc2c(c1)cc1n2CCCNC1 [AZEPINDOLE]
A. 100

###

# EXPERIMENT: Compound was evaluated for 50% lethal dose in mice; LD50 range is 30-100
# Assay type: ADME, organism-based
# STATED CONDITIONS: mouse, in vivo
Reported LD50 values for a set of compounds
Reply with just the number (in mg/kg).

- SMILES INPUT: "CNCC(c1ccccc1)c1ccccc1"
  OBSERVED RESULT: 30
- SMILES INPUT: "NCC(c1ccccc1)c1ccccc1"
  OBSERVED RESULT: 30

// moving on: another record for LD50
Q. GET /values?readout=LD50&item= CN(C)CC(c1ccccc1)c1ccccc1
A. 100

###

# Test system: Mus musculus
# EXPERIMENT: Antidepressant activity measured by maximal electroshock seizure threshold (MEST) assay in TBZ treated mice after ip administration
# Format: functional
MEASURED PARAMETER: log10 ED50 (log10 of the value in mg/kg)
Could you please treat all values as log10 of ED50 in mg/kg?

Look over these answered cases.
- COMPOUND: "NCC(O)(c1ccccc1)c1ccccc1"
  OBSERVED RESULT: 1.00
- COMPOUND: "CNCC(c1ccccc1)c1ccccc1"
  OBSERVED RESULT: 0.95
- COMPOUND: "CN(C)CCCN1c2ccccc2CCc2ccccc21"
  OBSERVED RESULT: 1.17
- COMPOUND: "OCCN(CCO)CC(c1ccccc1)c1ccccc1"
  OBSERVED RESULT: 1.19
- COMPOUND: "CCN(CCO)CCC(c1ccccc1)c1ccccc1"
  OBSERVED RESULT: 1.33
- COMPOUND: "c1ccc2c(c1)cc1n2CCCNC1 [AZEPINDOLE]"
  OBSERVED RESULT: 1.51

// moving on: another record for log10 ED50
Q. Which log10 ED50 is reported with Mus musculus for this entry: CN(C)CC(c1ccccc1)c1ccccc1 ?
A. 0.48
